Test system: HepG2 cell line
assay.procedure: Cytotoxicity against human HepG2 cell lines
Type: cell-based
Binary call on (e) Cytotox HepG2: class 1 from 10 µM upward, class 0 beneath that.

CC(C)c1nc2cnc(-c3cccc(S(F)(F)(F)(F)F)c3)cn2c1-c1c(F)cc(O)cc1F [Example 39]
class 0
CC(C)c1cc(-c2cn3c(-c4ccc5[nH]ncc5c4F)c(C(F)(F)F)nc3cn2)ccc1F [Example 67]
class 1
Fc1c(-c2c(C(F)(F)F)nc3cnc(-c4ccnc(C(F)(F)F)c4)cn23)ccc2[nH]ncc12 [Example 88]
class 0
Fc1ccc(-c2cn3c(-c4ccc5[nH]ncc5c4F)c(C(F)(F)F)nc3cn2)cc1OC(F)(F)F [Example 71]
class 1
Cc1nc2cnc(-c3ccc(F)c(C(F)(F)F)c3)cn2c1-c1ccc(O)cc1F [Example 10]
class 1
Oc1cc(F)c(-c2c(C3CC3)nc3cnc(-c4ccc(F)c(C(F)(F)F)c4)cn23)c(F)c1 [Example 34]
class 0

Exercise: Record CC(C)c1nc2cnc(-c3cccc(C(F)(F)F)c3)cn2c1-c1ccc(O)cc1F [Example 9] ; criterion: (e) Cytotox HepG2 no lower than 10 µM. Met?
Key: class 0

Exercise: Record CC(C)c1cc(-c2cn3c(-c4ccc5[nH]ncc5c4F)c(C4CC4)nc3cn2)ccc1F [Example 79] ; criterion: (e) Cytotox HepG2 no lower than 10 µM. Met?
Key: class 1

====

Tested on: S. mansoni adult worms
assay.procedure: In vitro assay, S. mansoni adult worms
Type: cell-based
experimental.setup: Schistosoma mansoni; S. mansoni adult worms, in vitro; read-out: (a) Adult
Each entry below carries its reported IC50.
In your response, the unit should come after the numeric value.

# count of solved cases: 2
Cc1nc2cnc(-c3cccc(C(F)(F)F)c3)cn2c1-c1ccc(O)cc1F
290 nM
CC(C)c1cc(-c2cn3c(-c4ccc5[nH]ncc5c4F)c(C4CCC4)nc3cn2)ccc1F
7 nM

Exercise: Name the reported IC50 value associated with the molecule Fc1ccc(-c2cn3c(-c4ccc5[nH]ncc5c4F)c(C(F)(F)F)nc3cn2)cc1S(F)(F)(F)(F)F
Key: 44 nM

Exercise: Name the reported IC50 value associated with the molecule CC(C)c1nc2cnc(-c3cccc(S(F)(F)(F)(F)F)c3)cn2c1-c1c(F)cc(O)cc1F
Key: 24 nM

====

Tested on: HepG2 cell line
assay.procedure: Cytotoxicity against human HepG2 cell lines
Type: cell-based
Each entry below carries its reported (e) Cytotox HepG2.
The reply should contain only the number, in µM.

COc1ccc(-c2c(C(C)C)nc3cnc(-c4cccc(C(F)(F)F)c4)cn23)cc1OP(=O)(O)O [Example 28]
19.2
CC(C)c1nc2cnc(-c3ccc(F)c(C(F)(F)F)c3)cn2c1-c1c(F)cc(O)cc1F [Example 17]
7.1
CC(C)Oc1cccc(-c2cn3c(-c4ccc5[nH]ncc5c4F)c(C(F)(F)F)nc3cn2)c1 [Example 86]
13.2

Exercise: Tell me reported (e) Cytotox HepG2 for CC(C)c1cc(-c2cn3c(-c4ccc5[nH]ncc5c4F)c(C4CCC4)nc3cn2)ccc1F [Example 77] , tested with HepG2 cell line.
Key: 10.8

====

Tested on: HepG2 cell line
assay.procedure: Cytotoxicity against human HepG2 cell lines
Type: cell-based
Each entry below carries its reported (e) Cytotox HepG2.
The reply should contain only the number, in µM.

Fc1ccc(-c2cn3c(-c4ccc5[nH]ncc5c4F)c(C4CC4)nc3cn2)cc1S(F)(F)(F)(F)F
14.8

Exercise: Tell me reported (e) Cytotox HepG2 for CC(C)c1nc2cnc(-c3cccc(C(F)(F)F)c3)cn2c1-c1c(F)cc(O)cc1F , tested with HepG2 cell line.
Key: 7.5

Exercise: Tell me reported (e) Cytotox HepG2 for Cc1nc2cnc(-c3ccc(F)c(C(F)(F)C(F)(F)F)c3)cn2c1-c1c(F)cc(O)cc1F , tested with HepG2 cell line.
Key: 8.8

Exercise: Tell me reported (e) Cytotox HepG2 for CCc1nc2cnc(-c3ccc(F)c(C(F)(F)F)c3)cn2c1-c1c(F)cc(O)cc1F , tested with HepG2 cell line.
Key: 8.3

====

System: HepG2 cell line
assay.procedure: Cytotoxicity against human HepG2 cell lines
Assay type: cell-based
measured.metric: (e) Cytotox HepG2
In your response, the unit should come after the numeric value.

# count of solved cases: 2
Oc1cc(F)c(-c2c(C3CCC3)nc3cnc(-c4ccc(F)c(C(F)(F)F)c4)cn23)c(F)c1 [Example 35]
5.7 µM
CC(C)c1nc2cnc(-c3cccc(C(F)(F)F)c3)nc2n1-c1ccc(O)cc1F [Example 90]
9.3 µM

Below: the item to evaluate.
Exercise: Tell me reported (e) Cytotox HepG2 for Fc1ccc(-c2cn3c(-c4ccc5[nH]ncc5c4F)c(C(F)(F)F)nc3cn2)cc1C1CC1 [Example 84] , tested with HepG2 cell line.
Key: 10.5 µM

====

Each entry below carries its reported (e) Cytotox HepG2.
Test system: HepG2 cell line
assay.procedure: Cytotoxicity against human HepG2 cell lines
Type: cell-based
The reply should contain only the number, in µM.

# count of solved cases: 10
O=P(O)(O)Oc1cc(F)c(-c2c(C3CC3)nc3cnc(-c4ccc(F)c(C(F)(F)F)c4)cn23)c(F)c1
14.8
CC(C)c1cccc(-c2cn3c(-c4ccc5[nH]ncc5c4F)c(C(F)(F)F)nc3cn2)c1
12.9
CC(C)c1nc2cnc(-c3ccc(F)c(C(F)(F)F)c3)cn2c1-c1c(F)cc(OP(=O)(O)O)cc1F
6.5
Oc1cc(F)c(-c2c(C3CC3)nc3cnc(-c4ccc(F)c(S(F)(F)(F)(F)F)c4)cn23)c(F)c1
10.1
Cc1nc2cnc(-c3ccc(F)c(C(F)(F)F)c3)cn2c1-c1c(F)cc(O)cc1F
7.6
CCc1nc2cnc(-c3cccc(C(F)(F)F)c3)cn2c1-c1ccc(O)cc1F
18.7
CCc1nc2cnc(-c3ccc(F)c(C(F)(F)F)c3)cn2c1-c1ccc2[nH]ncc2c1F
13.1
CCc1nc2cnc(-c3cccc(C(F)(F)C(F)(F)F)c3)cn2c1-c1c(F)cc(O)cc1F
8.0
Fc1c(-c2c(C3CC3)nc3cnc(-c4cccc(S(F)(F)(F)(F)F)c4)cn23)ccc2[nH]ncc12
20.7
COc1ccc(-c2c(C(F)(F)F)nc3cnc(-c4cccc(C(F)(F)C(F)(F)F)c4)cn23)cc1O
11.1

Exercise: Name the reported (e) Cytotox HepG2 value associated with the compound Fc1ccc(-c2cn3c(-c4ccc5[nH]ncc5c4F)c(C(F)(F)F)nc3cn2)cc1C1CCC1
Key: 6.1

Exercise: Name the reported (e) Cytotox HepG2 value associated with the compound Fc1ccc(-c2cn3c(-c4ccc5[nH]ncc5c4F)c(C(F)(F)F)nc3cn2)cc1CC(F)(F)F
Key: 5.3

Exercise: Name the reported (e) Cytotox HepG2 value associated with the compound CC(C)c1nc2cnc(-c3ccc(F)c(C(F)(F)F)c3)nc2n1-c1c(F)cc(O)cc1F
Key: 4.8

Exercise: Name the reported (e) Cytotox HepG2 value associated with the compound Cc1nc2cnc(-c3ccc(F)c(C(F)(F)F)c3)cn2c1-c1c(F)cc(OP(=O)(O)O)cc1F
Key: 6.8

Exercise: Name the reported (e) Cytotox HepG2 value associated with the compound CC(C)c1nn2cnc(-c3cccc(C(F)(F)F)c3)cc2c1-c1c(F)cc(O)cc1F
Key: 8.4

====

Tested on: S. mansoni adult worms
assay.procedure: In vitro assay, S. mansoni adult worms
Format: cell-based
experimental.setup: Schistosoma mansoni; S. mansoni adult worms, in vitro; read-out: (a) Adult
Each entry below carries its reported IC50.
The reply should contain only the number, in nM.

CC(C)c1cc(-c2cn3c(-c4c(F)cc(O)cc4F)c(C4CC4)nc3cn2)ccc1F
4
COc1cc(-c2c(C)nc3cnc(-c4cccc(C(F)(F)F)c4)cn23)ccc1O
520
Fc1ccc(-c2cn3c(-c4ccc5[nH]ncc5c4F)c(C4CC4)nc3cn2)cc1C(F)(F)C(F)(F)F
23
COc1ccc(-c2c(C(C)C)nc3cnc(-c4cccc(C(F)(F)F)c4)cn23)cc1O
58

Below: the item to evaluate.
Exercise: Name the reported IC50 value associated with the molecule CCc1nc2cnc(-c3cccc(C(F)(F)F)c3)cn2c1-c1ccc(O)cc1F
Key: 100

====

Test system: S. mansoni adult worms
assay.procedure: In vitro assay, S. mansoni adult worms
Assay type: cell-based
experimental.setup: Schistosoma mansoni; S. mansoni adult worms, in vitro; read-out: (a) Adult
Assign classes using reported IC50 values and the ranges band A (below 20 nM), band B (20 nM to below 60 nM), band C (60 nM or more), please.

Solved entries (count: 2):
CC(C)c1nc2cnc(-c3ccc(F)c(S(F)(F)(F)(F)F)c3)cn2c1-c1ccc2[nH]ncc2c1F [Example 68]
band A
COc1ccc(-c2c(C3CC3)nc3cnc(-c4cccc(C(F)(F)F)c4)cn23)cc1O [Example 13]
band C

Exercise: Sort into band: CC(C)c1nn2cnc(-c3cccc(C(F)(F)F)c3)cc2c1-c1c(F)cc(O)cc1F [Example 24]
Key: band B

Exercise: Sort into band: COc1cc(-c2c(C(C)C)nc3cnc(-c4cccc(C(F)(F)F)c4)cn23)cc2cn[nH]c12 [Example 22]
Key: band C

Exercise: Sort into band: CC(C)c1nc2cnc(-c3cccc(C(F)(F)F)c3)cn2c1-c1ccc(O)cc1F [Example 9]
Key: band C

Exercise: Sort into band: CC(C)c1cc(-c2cn3c(-c4ccc5[nH]ncc5c4F)c(C(F)(F)F)nc3cn2)ccn1 [Example 87]
Key: band B

Exercise: Sort into band: CCc1nc2cnc(-c3ccc(F)c(C(C)C)c3)cn2c1-c1ccc2[nH]ncc2c1F [Example 75]
Key: band A

Exercise: Sort into band: Fc1c(-c2c(C(F)(F)F)nc3cnc(-c4ccnc(C(F)(F)F)c4)cn23)ccc2[nH]ncc12 [Example 88]
Key: band C

Exercise: Sort into band: C#CCOc1cc(-c2cn3c(-c4ccc5[nH]ncc5c4F)c(C(F)(F)F)nc3cn2)ccc1F [Example 78]
Key: band A

Exercise: Sort into band: Cc1nc2cnc(-c3cccc(C(F)(F)C(F)(F)F)c3)cn2c1-c1c(F)cc(O)cc1F [Example 49]
Key: band B

Exercise: Sort into band: CC(C)c1nc2cnc(-c3cccc(Br)c3)cn2c1-c1ccc2[nH]ncc2c1F [Example 73]
Key: band B

Exercise: Sort into band: CCc1nc2cnc(-c3cccc(C(F)(F)F)c3)cn2c1-c1ccc(OC)c(O)c1 [Example 7]
Key: band C

Exercise: Sort into band: Fc1ccc(-c2cn3c(-c4ccc5[nH]ncc5c4F)c(C4CC4)nc3cn2)cc1S(F)(F)(F)(F)F [Example 57]
Key: band A

Exercise: Sort into band: Oc1cc(F)c(-c2c(C3CC3)nn3cnc(-c4ccc(F)c(C(F)(F)F)c4)cc23)c(F)c1 [Example 60]
Key: band A

Exercise: Sort into band: Fc1c(-c2c(C(F)(F)F)nc3cnc(-c4cccc(C(F)(F)F)c4)cn23)ccc2[nH]ncc12 [Example 70]
Key: band B
